# assay_system: human RORγ (Homo sapiens)
# Construct: from Ser253 to Lys518 for human RORγ; expressed in transfected cells; host or cells: CHO cells (transient co-transfection with pG5-Luc)
# method_summary: In-vitro reporter gene assay for inhibitory activity against RORγ transcription, Test Method B (pFA/hRORγ LBD / pG5-Luc in CHO cells)
# Assay type: cell-based
# condition_context: luciferase reporter, CHO cells, 2 days
EC50 vs 0.09 µM: less than gives 1; not less than gives -1.

molecule: CC(C)(C)CCc1ccc([C@@]23CCC(C)(C)CC2=CN(C24CC(C(=O)O)(C2)C4)C(=O)N3)cc1Cl (single isomer, unassigned) [Example 103]
qualitative_label: 1
--
molecule: CC1C2=CN(C34CC(C(=O)O)(C3)C4)C(=O)NC2(c2ccc(CCC(C)(C)C)c(Cl)c2)CC1(C)C (single isomer, unassigned) [Example 34]
qualitative_label: 1
--
molecule: CC1C2=CN(C34CC(C(=O)O)(C3)C4)C(=O)N[C@]2(c2ccc(CCC(C)(C)C)c(Cl)c2)COC1(C)C (single isomer, unassigned) [Example 109]
qualitative_label: 1
--
molecule: CC1(C)CC(COc2ccc(C34CCCCC3=CN(CCC(=O)O)C(=O)N4)cc2Cl)C1 (racemic) [Example 100]
qualitative_label: -1
--
molecule: CC(C)C1CC[C@@]2(c3ccc(CCC(C)(C)C)c(Cl)c3)NC(=O)N([C@H]3CC[C@@H](C(=O)O)C3)C=C2C1 (single isomer, unassigned) [Example 105]
qualitative_label: -1
--
molecule: CCCCOc1ccc(C23CCCCC2=CN(CCC(=O)O)C(=O)N3)cc1Cl (racemic) [Example 101]
qualitative_label: -1

----------
# assay_system: human RORγ (Homo sapiens)
# Construct: from Ser253 to Lys518 for human RORγ; expressed in transfected cells; host or cells: CHO cells (transient co-transfection with pG5-Luc)
# Sequence (P51449 253-518): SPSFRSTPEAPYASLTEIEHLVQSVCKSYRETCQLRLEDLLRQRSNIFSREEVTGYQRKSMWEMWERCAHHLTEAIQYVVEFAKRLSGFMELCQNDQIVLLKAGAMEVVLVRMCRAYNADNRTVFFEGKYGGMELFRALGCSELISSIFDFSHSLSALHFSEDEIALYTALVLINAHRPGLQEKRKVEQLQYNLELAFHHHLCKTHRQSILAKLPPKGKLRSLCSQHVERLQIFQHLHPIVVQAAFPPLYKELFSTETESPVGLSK
# method_summary: In-vitro reporter gene assay for inhibitory activity against RORγ transcription, Test Method B (pFA/hRORγ LBD / pG5-Luc in CHO cells)
# Format: cell-based
# condition_context: luciferase reporter, CHO cells, 2 days
Entries and their EC50 values follow.
readout_label: EC50 (µM)

compound: CC1CC[C@]2(c3ccc(CCC(C)(C)C)c(Cl)c3)NC(=O)N(C34CC(C(=O)O)(C3)C4)C=C2C1 (single isomer, unassigned) [Example 91]
readout_label: EC50
result_units: µM
value_qualifier: =
obs_value: 0.111
//
compound: C[C@H]1CCC2(c3ccc(C4C(C(C)(C)C)C4(F)F)c(Cl)c3)NC(=O)N(C34CCC(C(=O)O)(C3)C4)C=C2[C@@H]1C (single isomer, unassigned) [Example 115]
readout_label: EC50
result_units: µM
value_qualifier: =
obs_value: 0.031
//
compound: CC1C2=CN(C34CC(C(=O)O)(C3)C4)C(=O)NC2(c2ccc(CCC(C)(C)C)c(Cl)c2)CC1(C)C (single isomer, unassigned) [Example 35]
readout_label: EC50
result_units: µM
value_qualifier: =
obs_value: 4.19
//
compound: C[C@H]1CCC2(c3ccc(C4C(C(C)(C)C)C4(F)F)c(Cl)c3)NC(=O)N(C34CC(C(=O)O)(C3)C4)C=C2[C@@H]1C (single isomer, unassigned) [Example 114]
readout_label: EC50
result_units: µM
value_qualifier: =
obs_value: 0.027
//
compound: CC1CC[C@@]2(c3ccc(CCC(C)(C)C)c(Cl)c3)NC(=O)N(C34CC(C(=O)O)(C3)C4)C=C2C1 (single isomer, unassigned) [Example 90]
readout_label: EC50
result_units: µM
value_qualifier: =
obs_value: 0.022
//
compound: CC(C)Oc1ccc(C23CCCCC2=CN(CCC(=O)O)C(=O)N3)cc1Cl (racemic)
readout_label: EC50
result_units: µM
value_qualifier: >
obs_value: 10

----------
# assay_system: mouse RORγ (Mus musculus)
# Construct: from Ile251 to Lys516 for mouse RORγ; expressed in transfected cells; host or cells: CHO cells (transient co-transfection with pG5-Luc)
# method_summary: In-vitro reporter gene assay for inhibitory activity against RORγ transcription, Test Method A (GAL4-mRORγ LBD / pG5-Luc in CHO cells)
# Assay type: cell-based
# condition_context: luciferase reporter, 2 days
Let's look at some molecules and their measured EC50.

molecule: CC(C)(C)CCc1ccc([C@@]23CCCCC2=CN(C24CC(C(=O)O)(C2)C4)C(=O)N3)cc1Cl
assay_system: mouse RORγ (Mus musculus)
result_units: µM
value_qualifier: =
EC50: 0.035

molecule: C[C@H]1CC2=CN(CCC(=O)O)C(=O)NC2(c2ccc(CCC(C)(C)C)c(Cl)c2)CO1 (single isomer, unassigned)
assay_system: mouse RORγ (Mus musculus)
result_units: µM
value_qualifier: =
EC50: 0.516

molecule: CC(C)(C)CCc1ccc([C@]23COC(COCc4ccccc4)C2=CN(CCC(=O)O)C(=O)N3)cc1Cl (single isomer, unassigned)
assay_system: mouse RORγ (Mus musculus)
result_units: µM
value_qualifier: >
EC50: 8

----------
# assay_system: human RORγ (Homo sapiens)
# Construct: from Ser253 to Lys518 for human RORγ; expressed in transfected cells; host or cells: CHO cells (transient co-transfection with pG5-Luc)
# Sequence (P51449 253-518): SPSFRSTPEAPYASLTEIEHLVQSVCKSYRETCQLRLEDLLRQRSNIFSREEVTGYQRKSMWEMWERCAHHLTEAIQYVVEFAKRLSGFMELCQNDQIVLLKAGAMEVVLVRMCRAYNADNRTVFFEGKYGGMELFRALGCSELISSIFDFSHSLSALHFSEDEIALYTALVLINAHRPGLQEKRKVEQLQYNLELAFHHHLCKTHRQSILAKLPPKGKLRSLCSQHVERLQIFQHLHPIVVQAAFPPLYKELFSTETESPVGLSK
# method_summary: In-vitro reporter gene assay for inhibitory activity against RORγ transcription, Test Method A (GAL4-hRORγ LBD / pG5-Luc in CHO cells)
# Format: cell-based
# condition_context: luciferase reporter, 2 days
# Lookup of reported EC50 keyed by entry
readout_label: EC50 (µM)

molecule: CC1CCC[C@@]2(c3ccc(CCC(C)(C)C)c(Cl)c3)NC(=O)N(C34CC(C(=O)O)(C3)C4)C=C12 (single isomer, unassigned)
value_qualifier: =
obs_value: 0.018

molecule: C[C@@H]1CC2=CN(C34CC(C(=O)O)(C3)C4)C(=O)NC2(c2ccc(CCC(C)(C)C)c(Cl)c2)CO1 (single isomer, unassigned)
value_qualifier: =
obs_value: 0.028

molecule: C[C@@H]1CCC2(c3ccc(CCC(C)(C)C)c(Cl)c3)NC(=O)N(CCC(=O)O)C=C12 (single isomer, unassigned) [Example 11]
value_qualifier: =
obs_value: 0.021

molecule: CC1CCC2(c3ccc(CCC(C)(C)C)c(Cl)c3)NC(=O)N(CCC(=O)O)C=C2C1 (single isomer, unassigned) [Example 69]
value_qualifier: =
obs_value: 0.015

molecule: CC(=O)NCC1CCC2(c3ccc(CCC(C)(C)C)c(Cl)c3)NC(=O)N(CCC(=O)O)C=C12 (racemic)
value_qualifier: >
obs_value: 20

molecule: CC(C)(C)COc1ccc(C23CCCCC2=NNC(=O)N3)cc1Cl (racemic)
value_qualifier: =
obs_value: 0.435

----------
# assay_system: mouse RORγ (Mus musculus)
# Construct: from Ile251 to Lys516 for mouse RORγ; expressed in transfected cells; host or cells: CHO cells (transient co-transfection with pG5-Luc)
# Sequence (P51450 251-516): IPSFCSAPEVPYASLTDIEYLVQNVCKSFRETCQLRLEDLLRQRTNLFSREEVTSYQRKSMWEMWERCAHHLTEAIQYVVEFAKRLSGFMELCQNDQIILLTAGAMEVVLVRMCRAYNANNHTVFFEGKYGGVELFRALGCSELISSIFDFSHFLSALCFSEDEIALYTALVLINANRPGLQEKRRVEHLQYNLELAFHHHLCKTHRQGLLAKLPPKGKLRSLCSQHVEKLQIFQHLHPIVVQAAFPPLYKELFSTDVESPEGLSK
# method_summary: In-vitro reporter gene assay for inhibitory activity against RORγ transcription, Test Method B (pFA/mRORγ LBD / pG5-Luc in CHO cells)
# Format: cell-based
# condition_context: luciferase reporter, CHO cells, 2 days
Under this convention, label 1 denotes EC50 strictly below 0.08 µM and label 0 denotes EC50 at or above 0.08 µM.

molecule: CC1CC[C@@]2(c3ccc(CCC(C)(C)C)c(Cl)c3)NC(=O)N(C34CC(C(=O)O)(C3)C4)C=C2C1 (single isomer, unassigned) [Example 90]
qualitative_label: label 1

molecule: C[C@H]1CCC2(c3ccc(C4C(C(C)(C)C)C4(F)F)c(Cl)c3)NC(=O)N(C34CC(C(=O)O)(C3)C4)C=C2[C@@H]1C (single isomer, unassigned) [Example 113]
qualitative_label: label 1

molecule: C[C@@H]1CCC2(c3ccc(CCC(C)(C)C)c(Cl)c3)NC(=O)N(C34CC(C(=O)O)(C3)C4)C=C2[C@@H]1C (single isomer, unassigned)
qualitative_label: label 0

molecule: C[C@H]1CCC2(c3ccc(C4C(C(C)(C)C)C4(F)F)c(Cl)c3)NC(=O)N(C34CCC(C(=O)O)(C3)C4)C=C2[C@@H]1C (single isomer, unassigned) [Example 116]
qualitative_label: label 0

molecule: CC1CC[C@]2(c3ccc(CCC(C)(C)C)c(Cl)c3)NC(=O)N(C34CC(C(=O)O)(C3)C4)C=C2C1 (single isomer, unassigned) [Example 91]
qualitative_label: label 0

molecule: CC1C2=CN(C34CCC(C(=O)O)(C3)C4)C(=O)N[C@@]2(c2ccc(CCC(C)(C)C)c(Cl)c2)COC1(C)C (single isomer, unassigned)
qualitative_label: label 0

molecule: CC1(C)CC1COc1ccc(C23CCCCC2=CN(CCC(=O)O)C(=O)N3)cc1Cl (racemic)
qualitative_label: label 0

molecule: CC(C)(C)CCc1ccc([C@@]23CCC(F)(F)CC2=CN(C24CC(C(=O)O)(C2)C4)C(=O)N3)cc1Cl (single isomer, unassigned)
qualitative_label: label 1

molecule: CC(C)C1CC[C@@]2(c3ccc(CCC(C)(C)C)c(Cl)c3)NC(=O)N([C@H]3CC[C@@H](C(=O)O)C3)C=C2C1 (single isomer, unassigned)
qualitative_label: label 0

molecule: CC1(C)CC(COc2ccc(C34CCCCC3=CN(CCC(=O)O)C(=O)N4)cc2Cl)C1 (racemic)
qualitative_label: label 1

molecule: CC(C)C1CC[C@]2(c3ccc(CCC(C)(C)C)c(Cl)c3)NC(=O)N(C34CC(C(=O)O)(C3)C4)C=C2C1 (single isomer, unassigned)
qualitative_label: label 0
